Please respond with reported Kd for every item in the list.
- system_name: T1, human LRRC33-proTGFβ1 complex (human, UniProt P01137 30-390; Q86YC3 19-650)
- T1 construct: also called hLRRC33-proTGFβ1; hLRRC33
- experiment_notes: BLI (Octet)
A number alone suffices; assume pM.

// lookup Kd for Ab2 (antibody, V domains shown) VH: EVQLLESGGGLVQPGGSLRLSCAASGFTFADYAMTWVRQAPGKGLEWVSAISGSGAATYFADSVKGRFTISRDNSKNTLYLQMNSLRAEDTAVYYCARVSSGHWDFDYWGQGTLVTVSS VL: DIQLTQSPSSLSASVGDRVTITCRASQSISSYLNWYQQKPGKAPKLLIYAASNLQSGVPSRFSGSGSGTDFTLTISSLQPEDFATYYCQQTYTVPLTFGGGTKVEIKR
508

Please give the measured Kd for this binder: Ab14 (antibody, V domains shown) VH: EVQLLESGGGLVQPGGSLRLSCAASGFTFSAYAMTWVRQAPGKGLEWVSAISGTGGSTYYADSVKGRFTISRDNSKNTLYLQMNSLRAEDTAVYYCARVSSGHWDFDYWGQGTLVTVSS VL: DIQMTQSPSSLSASVGDRVTITCRASQSISSYLNWYQQKPGKAPKLLIYAASSLQSGVPSRFSGSGSGTDFTLTISSLQPEDFATYYCQQVYDPPLTFGGGTKVEIK
1340

Consider the binder Ab27 (antibody, V domains shown) VH: EVQLVESGGGLVQPGGSLRLSCAASGFTFSFYAMNWVRQAPGKGLEWVSYISPDASTIYYADSVKGRFTISRDNAKNSLYLQMNSLRAEDTAVYYCARGVLDYGDMLDPWGQGTLVTVSS VL: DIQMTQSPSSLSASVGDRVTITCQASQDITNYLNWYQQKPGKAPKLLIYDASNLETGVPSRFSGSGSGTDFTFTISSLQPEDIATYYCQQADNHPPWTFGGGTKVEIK and give its measured Kd.
299
